CC50 reference
# protocol notes: Cytotoxicity against Homo sapiens (human) HEL cells assessed as alteration in cell morphology by microscopy
# Format: cell-based
Report the value in µg/mL with no unit label.

C/C(=N\NC(=O)c1ccncc1)c1ccc(O)cc1O | 2.1
C/C(=N\NC(=O)c1ccncc1)c1ccc(Cl)cc1Cl | 11
C/C(=N\NC(=O)c1ccncc1)c1ccc(O)cc1 | 91

Any idea what CC50 was measured for C/C(=N\NC(=O)c1ccncc1)c1ccc(Cl)cc1 ?
20

Any idea what CC50 was measured for COc1ccc(/C(C)=N/NC(=O)c2ccncc2)c(OC)c1 ?
10

Any idea what CC50 was measured for C/C(=N\NC(=O)c1ccncc1)c1ccc(Br)cc1 ?
51

Any idea what CC50 was measured for COc1ccc(OC)c(/C(C)=N/NC(=O)c2ccncc2)c1 ?
100

====

# Tested on: Respiratory syncytial virus
# protocol notes: Antiviral activity against Respiratory syncytial virus infected human HeLa cells assessed as inhibition of virus-induced cytopathicity by microscopy
# Assay type: functional, organism-based
quantity: EC50

Example compounds with recorded EC50:
C/C(=N\NC(=O)c1ccncc1)c1ccc(O)cc1O | > 0.8 µg/mL
C/C(=N\NC(=O)c1ccncc1)c1ccc([N+](=O)[O-])cc1 | > 20 µg/mL
C/C(=N\NC(=O)c1ccncc1)c1ccc(Cl)cc1 | > 20 µg/mL
C/C(=N\NC(=O)c1ccncc1)c1ccc(O)cc1 | > 20 µg/mL
COc1ccc(OC)c(/C(C)=N/NC(=O)c2ccncc2)c1 | > 100 µg/mL
C/C(=N\NC(=O)c1ccncc1)c1ccc(Cl)cc1Cl | > 20 µg/mL
O=C(NN=C1CCCCCC1)c1ccncc1 [N'-CYCLOHEPTYLIDENEISONICOTINOHYDRAZIDE] | > 100 µg/mL
C/C(=N\NC(=O)c1ccncc1)c1cccc([N+](=O)[O-])c1 | > 4 µg/mL

Any idea what EC50 was measured for C/C(=N\NC(=O)c1ccncc1)c1ccc(Br)cc1 ?
> 4 µg/mL

Any idea what EC50 was measured for COc1ccc(/C(C)=N/NC(=O)c2ccncc2)c(OC)c1 ?
> 4 µg/mL

Any idea what EC50 was measured for C/C(=N\NC(=O)c1ccncc1)c1ccccc1O ?
> 0.2 µg/mL

====

-logMIC reference
# Test system: Aspergillus niger
# protocol notes: Antimicrobial activity against Aspergillus niger after 7 days by tube dilution method
# Assay type: functional
Just the number, please.

C/C(=N\NC(=O)c1ccncc1)c1ccc(O)cc1O | 2.34
C/C(=N\NC(=O)c1ccncc1)c1ccc(Br)cc1 | 2.41
C/C(=N\NC(=O)c1ccncc1)c1ccc(O)cc1 | 2.31
COc1ccc(/C(C)=N/NC(=O)c2ccncc2)c(OC)c1 | 2.38
C/C(=N\NC(=O)c1ccncc1)c1ccc([N+](=O)[O-])cc1 | 2.36
OC(Cn1cncn1)(Cn1cncn1)c1ccc(F)cc1F | 2.64

Any idea what -logMIC was measured for NNC(=O)c1ccncc1 ?
2.04

Any idea what -logMIC was measured for COc1ccc(OC)c(/C(C)=N/NC(=O)c2ccncc2)c1 ?
2.38

Any idea what -logMIC was measured for C/C(=N\NC(=O)c1ccncc1)c1ccc(Cl)cc1Cl ?
2.39

Any idea what -logMIC was measured for C/C(=N\NC(=O)c1ccncc1)c1ccccc1Br ?
2.41

Any idea what -logMIC was measured for C/C(=N\NC(=O)c1ccncc1)c1ccc(Cl)cc1 ?
2.34

Any idea what -logMIC was measured for C/C(=N\NC(=O)c1ccncc1)c1ccccc1O ?
2.31

Any idea what -logMIC was measured for O=C(NN=C1CCCCCC1)c1ccncc1 [N'-CYCLOHEPTYLIDENEISONICOTINOHYDRAZIDE] ?
1.66

Any idea what -logMIC was measured for C/C(=N\NC(=O)c1ccncc1)c1cccc([N+](=O)[O-])c1 ?
2.36

====

MCC reference
# protocol notes: Cytotoxicity against Homo sapiens (human) HEL cells assessed as alteration in cell morphology by microscopy
# Type: cell-based
# reported conditions: read-out: MTC

C/C(=N\NC(=O)c1ccncc1)c1ccc(O)cc1O | > 100 µg/mL
C/C(=N\NC(=O)c1ccncc1)c1ccc(Br)cc1 | ≥ 20 µg/mL

// next entry
Any idea what MCC was measured for C/C(=N\NC(=O)c1ccncc1)c1ccc(Cl)cc1Cl ?
> 100 µg/mL

====

# Tested on: Candida albicans
# protocol notes: Antimicrobial activity against Candida albicans after 48 hr by tube dilution method
# Format: functional
-logMIC reference
Just the number, please.

C/C(=N\NC(=O)c1ccncc1)c1ccc(Cl)cc1 | 2.34
OC(Cn1cncn1)(Cn1cncn1)c1ccc(F)cc1F | 2.64
C/C(=N\NC(=O)c1ccncc1)c1ccc(Br)cc1 | 2.41
C/C(=N\NC(=O)c1ccncc1)c1ccc(Cl)cc1Cl | 2.69
C/C(=N\NC(=O)c1ccncc1)c1ccccc1Br | 2.71

// next entry
Any idea what -logMIC was measured for O=C(NN=C1CCCCCC1)c1ccncc1 [N'-CYCLOHEPTYLIDENEISONICOTINOHYDRAZIDE] ?
1.66

====

MCC reference
# protocol notes: Cytotoxicity against Chlorocebus aethiops (African green monkey) Vero cells assessed as alteration in cell morphology by microscopy
# Format: cell-based
# reported conditions: chlorocebus sabaeus, read-out: MTC

O=C(NN=C1CCCCCC1)c1ccncc1 [N'-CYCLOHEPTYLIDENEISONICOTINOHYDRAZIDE] | > 100 µg/mL

Any idea what MCC was measured for C/C(=N\NC(=O)c1ccncc1)c1ccc(O)cc1 ?
≥ 20 µg/mL

Any idea what MCC was measured for COc1ccc(OC)c(/C(C)=N/NC(=O)c2ccncc2)c1 ?
> 100 µg/mL

====

# protocol notes: Cytotoxicity against Homo sapiens (human) HEL cells assessed as alteration in cell morphology by microscopy
# Type: cell-based
CC50 reference
Report the value in µg/mL with no unit label.

Example molecules with recorded CC50:
C/C(=N\NC(=O)c1ccncc1)c1ccccc1O | 0.4
C/C(=N\NC(=O)c1ccncc1)c1cccc([N+](=O)[O-])c1 | 13

Any idea what CC50 was measured for C/C(=N\NC(=O)c1ccncc1)c1ccc([N+](=O)[O-])cc1 ?
54

Every entry's value here was drawn from ChEMBL document CHEMBL3045530.
